Test: acute toxicity, peroral
Design: species or system Ratte
Details: in vivo, po, rat
property-measured: LD50

Which LD50 value belongs to O=[PH]1Oc2ccccc2-c2ccccc21 (stereo not shown) [DOP] ?
> 2000 mg/kg
